Molecular target: hERG (KCNH2) (Homo sapiens, UniProt Q12809)
Sequence (Q12809 whole entry): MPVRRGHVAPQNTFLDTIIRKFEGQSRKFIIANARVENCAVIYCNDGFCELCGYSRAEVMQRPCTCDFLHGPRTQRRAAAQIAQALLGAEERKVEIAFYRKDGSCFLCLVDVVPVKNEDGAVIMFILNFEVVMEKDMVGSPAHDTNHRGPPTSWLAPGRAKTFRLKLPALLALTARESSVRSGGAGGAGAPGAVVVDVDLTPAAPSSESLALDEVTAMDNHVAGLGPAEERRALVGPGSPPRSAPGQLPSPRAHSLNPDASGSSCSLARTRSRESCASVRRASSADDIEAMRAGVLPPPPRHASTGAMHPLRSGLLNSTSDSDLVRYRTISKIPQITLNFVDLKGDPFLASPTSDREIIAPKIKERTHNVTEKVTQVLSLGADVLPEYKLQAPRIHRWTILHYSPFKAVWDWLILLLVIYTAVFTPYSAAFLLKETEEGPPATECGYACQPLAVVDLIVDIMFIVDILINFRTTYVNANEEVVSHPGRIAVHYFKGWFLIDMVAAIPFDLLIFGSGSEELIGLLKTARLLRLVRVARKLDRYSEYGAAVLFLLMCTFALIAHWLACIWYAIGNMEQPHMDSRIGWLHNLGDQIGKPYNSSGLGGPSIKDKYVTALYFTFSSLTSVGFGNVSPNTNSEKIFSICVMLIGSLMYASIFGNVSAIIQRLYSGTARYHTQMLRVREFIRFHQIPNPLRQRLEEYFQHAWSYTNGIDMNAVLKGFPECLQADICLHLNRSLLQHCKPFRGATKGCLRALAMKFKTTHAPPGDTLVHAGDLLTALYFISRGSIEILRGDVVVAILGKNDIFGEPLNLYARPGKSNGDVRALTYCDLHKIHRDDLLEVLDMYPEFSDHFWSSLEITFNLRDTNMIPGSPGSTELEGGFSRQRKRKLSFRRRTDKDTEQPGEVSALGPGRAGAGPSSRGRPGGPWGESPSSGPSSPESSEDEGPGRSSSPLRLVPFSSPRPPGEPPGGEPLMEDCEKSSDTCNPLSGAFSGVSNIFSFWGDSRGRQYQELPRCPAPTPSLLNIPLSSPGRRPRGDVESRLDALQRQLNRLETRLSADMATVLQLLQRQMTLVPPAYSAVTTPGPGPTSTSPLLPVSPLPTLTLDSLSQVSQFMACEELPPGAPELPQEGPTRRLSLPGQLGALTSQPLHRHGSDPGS
Experiment: Inhibition of human ERG at 10 uM
Please provide measured inhibition at 10 µM for the entries that follow.

CCCCc1nc(C(C)C)c(Cc2nc(C(C)(C)C)no2)c(=O)n1Cc1ccc(-c2ccccc2-c2noc(=O)[nH]2)cc1 16%

Item CCCCc1nc(C)c(Cc2nc(C(C)(C)C)no2)c(=O)n1Cc1ccc(-c2ccccc2-c2noc(=O)[nH]2)cc1 has what recorded inhibition at 10 µM? 8.3%

----------
Assay: Tmax in mouse at 10 mg/kg, po
Type: ADME, organism-based
Details: in vivo
measure-name: Tmax (min)
One number for each entry, in min.

CCCCc1nc(C)c(Cc2nc(C(C)(C)C)no2)c(=O)n1Cc1ccc(-c2ccccc2-c2noc(=O)[nH]2)cc1 19.8

Item CCCCc1nc(C(C)C)c(Cc2nc(C(C)(C)C)no2)c(=O)n1Cc1ccc(-c2ccccc2-c2noc(=O)[nH]2)cc1 has what recorded Tmax? 19.8

----------
Please provide measured %max for the entries that follow.
Biological target: Peroxisome proliferator-activated receptor gamma (Homo sapiens)
Sequence (P37231 whole entry): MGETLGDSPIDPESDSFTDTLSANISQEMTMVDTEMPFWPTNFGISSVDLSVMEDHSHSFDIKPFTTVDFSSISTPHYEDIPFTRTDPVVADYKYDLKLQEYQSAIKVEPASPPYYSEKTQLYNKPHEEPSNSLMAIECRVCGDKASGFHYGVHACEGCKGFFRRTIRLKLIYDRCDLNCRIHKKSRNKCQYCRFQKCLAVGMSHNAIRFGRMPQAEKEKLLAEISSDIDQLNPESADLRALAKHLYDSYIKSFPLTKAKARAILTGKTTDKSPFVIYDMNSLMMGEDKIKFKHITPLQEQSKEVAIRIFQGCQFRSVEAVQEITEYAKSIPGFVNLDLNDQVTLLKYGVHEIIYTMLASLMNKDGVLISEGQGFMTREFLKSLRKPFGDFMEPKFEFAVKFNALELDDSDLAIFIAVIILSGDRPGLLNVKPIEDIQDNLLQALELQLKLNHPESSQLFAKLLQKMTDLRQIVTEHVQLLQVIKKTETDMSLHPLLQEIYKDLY
Test: Agonist activity at PPARgamma (unknown origin) assessed as receptor transactivation after 24 hrs by TK-PPRE-Luc expressing cells based luciferase reporter gene assay relative to pioglitazone
One number for each entry, in %.

Check out these entries, answers already filled in.
CCCCc1nc(C(C)C)c(Cc2nc(C)no2)c(=O)n1Cc1ccc(-c2ccccc2-c2noc(=O)[nH]2)cc1 93
CCCCc1nc(C)c(Cc2nc(C(C)(C)C)no2)c(=O)n1Cc1ccc(-c2ccccc2-c2noc(=O)[nH]2)cc1 98
CCCCc1nc(C)c(Cc2nc(Cc3cc(F)cc(F)c3)no2)c(=O)n1Cc1ccc(-c2ccccc2-c2noc(=O)[nH]2)cc1 72
CCCCc1nc(C(C)C)c(Cc2nc(C3CC3)no2)c(=O)n1Cc1ccc(-c2ccccc2-c2noc(=O)[nH]2)cc1 102
CCCCc1nc(C(C)C)c(Cc2nc(Cc3ccc(F)cc3)no2)c(=O)n1Cc1ccc(-c2ccccc2-c2noc(=O)[nH]2)cc1 80

State the recorded %max for every item in the following list.
1. CCCCc1nc(C(C)C)c(Cc2nc(Cc3ccccc3)no2)c(=O)n1Cc1ccc(-c2ccccc2-c2noc(=O)[nH]2)cc1
2. CCCCc1nc(C)c(Cc2nc(Cc3ccc(F)cc3)no2)c(=O)n1Cc1ccc(-c2ccccc2-c2noc(=O)[nH]2)cc1

[92, 81]

----------
Experiment: Tmax in rat at 10 mg/kg, po
Assay type: ADME, organism-based
Details: in vivo
measure-name: Tmax (min)
Numbers only, in min.

Item CCCCc1nc(C)c(Cc2nc(C(C)(C)C)no2)c(=O)n1Cc1ccc(-c2ccccc2-c2noc(=O)[nH]2)cc1 has what recorded Tmax? 18

----------
Target: Peroxisome proliferator-activated receptor gamma (Homo sapiens)
Assay: Agonist activity at PPARgamma (unknown origin) assessed as receptor transactivation after 24 hrs by TK-PPRE-Luc expressing cells based luciferase reporter gene assay relative to pioglitazone
Please provide measured %max for the entries that follow.
Answers are plain numbers, in %.

CCCCc1nc(C(C)C)c(Cc2nc(C(C)(C)C)no2)c(=O)n1Cc1ccc(-c2ccccc2-c2noc(=O)[nH]2)cc1 123
CCCCc1nc(C)c(Cc2nc(Cc3ccccc3)no2)c(=O)n1Cc1ccc(-c2ccccc2-c2noc(=O)[nH]2)cc1 105
CCCCc1nc(C)c(Cc2nc(C(C)C)no2)c(=O)n1Cc1ccc(-c2ccccc2-c2noc(=O)[nH]2)cc1 101
CCCCc1nc(C)c(Cc2nc(CCOC)no2)c(=O)n1Cc1ccc(-c2ccccc2-c2noc(=O)[nH]2)cc1 68
CCCCc1nc(C)c(Cc2nc(Cc3cccc(F)c3)no2)c(=O)n1Cc1ccc(-c2ccccc2-c2noc(=O)[nH]2)cc1 82
CCCCc1nc(C)c(Cc2nc(COC)no2)c(=O)n1Cc1ccc(-c2ccccc2-c2noc(=O)[nH]2)cc1 60

Now take the following molecule into account.
Field: %max (Peroxisome proliferator-activated receptor gamma (Homo sapiens)). Entry: CCCCc1nc(C)c(Cc2nc(C3CC3)no2)c(=O)n1Cc1ccc(-c2ccccc2-c2noc(=O)[nH]2)cc1 89

----------
Biological target: Peroxisome proliferator-activated receptor gamma (Mus musculus)
Sequence (whole entry): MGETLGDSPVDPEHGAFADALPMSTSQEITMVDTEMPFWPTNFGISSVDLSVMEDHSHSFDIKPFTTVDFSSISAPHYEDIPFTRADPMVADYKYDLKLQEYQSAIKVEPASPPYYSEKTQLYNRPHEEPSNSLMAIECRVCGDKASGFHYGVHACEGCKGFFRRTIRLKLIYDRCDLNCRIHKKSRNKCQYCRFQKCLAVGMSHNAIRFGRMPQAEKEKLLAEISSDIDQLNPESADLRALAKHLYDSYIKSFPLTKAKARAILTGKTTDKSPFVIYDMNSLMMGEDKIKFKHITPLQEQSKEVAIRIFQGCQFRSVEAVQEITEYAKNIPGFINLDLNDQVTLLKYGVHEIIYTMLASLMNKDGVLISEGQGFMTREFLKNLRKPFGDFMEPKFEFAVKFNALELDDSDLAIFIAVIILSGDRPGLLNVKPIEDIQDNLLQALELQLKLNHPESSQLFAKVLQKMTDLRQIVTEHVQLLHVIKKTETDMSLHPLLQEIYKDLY
Test: Agonist activity at GAL4-tagged mouse PPARgamma LBD expressed in monkey CV1 cells assessed as receptor transactivation incubated for 24 hrs by luciferase reporter gene assay relative to telmisartan
Format: cell-based
measure-name: %max (%)
Numbers only, in %.

Check out these entries, answers already filled in.
CCCCc1nc(C(C)C)c(Cc2nnc(C)o2)c(=O)n1Cc1ccc(-c2ccccc2-c2noc(=O)[nH]2)cc1 80
CCCCc1nc(C)c(Cc2nc(C)n[nH]2)c(=O)n1Cc1ccc(-c2ccccc2-c2noc(=O)[nH]2)cc1 61
CCCCc1nc(C(C)C)c(Cc2nc(C)ns2)c(=O)n1Cc1ccc(-c2ccccc2-c2noc(=O)[nH]2)cc1 79
CCCCc1nc(C)c(Cc2nc(C)ns2)c(=O)n1Cc1ccc(-c2ccccc2-c2noc(=O)[nH]2)cc1 93
CCCCc1nc(C(C)C)c(Cc2nnc(C)s2)c(=O)n1Cc1ccc(-c2ccccc2-c2noc(=O)[nH]2)cc1 79

State the recorded %max for every item in the following list.
1. CCCCc1nc(C)c(Cc2nc(C(C)(C)C)no2)c(=O)n1Cc1ccc(-c2ccccc2-c2noc(=O)[nH]2)cc1
2. CCCCc1nc(C(C)C)c(Cc2nnc(C(C)(C)C)s2)c(=O)n1Cc1ccc(-c2ccccc2-c2noc(=O)[nH]2)cc1
3. CCCCc1nc(C)c(Cc2nnc(C)s2)c(=O)n1Cc1ccc(-c2ccccc2-c2noc(=O)[nH]2)cc1

[331, 180, 71]

----------
Molecular target: Peroxisome proliferator-activated receptor gamma (Homo sapiens)
Test: Agonist activity at PPARgamma (unknown origin) assessed as receptor transactivation after 24 hrs by TK-PPRE-Luc expressing cells based luciferase reporter gene assay
measure-name: log10 of EC50 (log10 of the value in nM)
// stored as log10 of EC50 expressed in nM

CCCCc1nc(C)c(Cc2nc(COC)no2)c(=O)n1Cc1ccc(-c2ccccc2-c2noc(=O)[nH]2)cc1 3.53
CCCCc1nc(C)c(Cc2nc(CCOC)no2)c(=O)n1Cc1ccc(-c2ccccc2-c2noc(=O)[nH]2)cc1 3.62
CCCCc1nc(C)c(Cc2nc(Cc3cc(F)cc(F)c3)no2)c(=O)n1Cc1ccc(-c2ccccc2-c2noc(=O)[nH]2)cc1 3.14
CCCCc1nc(C(C)C)c(Cc2nc(C)no2)c(=O)n1Cc1ccc(-c2ccccc2-c2noc(=O)[nH]2)cc1 3.02
CCCCc1nc(C)c(Cc2nc(Cc3ccc(F)cc3)no2)c(=O)n1Cc1ccc(-c2ccccc2-c2noc(=O)[nH]2)cc1 3.38
CCCCc1nc(C)c(Cc2nc(C3CC3)no2)c(=O)n1Cc1ccc(-c2ccccc2-c2noc(=O)[nH]2)cc1 3.63
CCCCc1nc(C(C)C)c(Cc2nc(Cc3ccccc3)no2)c(=O)n1Cc1ccc(-c2ccccc2-c2noc(=O)[nH]2)cc1 3.06
CCCCc1nc(C)c(Cc2nc(C(C)(C)C)no2)c(=O)n1Cc1ccc(-c2ccccc2-c2noc(=O)[nH]2)cc1 2.45
CCCCc1nc(C)c(Cc2nc(Cc3ccccc3)no2)c(=O)n1Cc1ccc(-c2ccccc2-c2noc(=O)[nH]2)cc1 3.24
CCCCc1nc(C(C)C)c(Cc2nc(Cc3ccc(F)cc3)no2)c(=O)n1Cc1ccc(-c2ccccc2-c2noc(=O)[nH]2)cc1 3.17

State the recorded log10 of EC50 for every item in the following list.
1. CCCCc1nc(C)c(Cc2nc(Cc3cccc(F)c3)no2)c(=O)n1Cc1ccc(-c2ccccc2-c2noc(=O)[nH]2)cc1
2. CCCCc1nc(C(C)C)c(Cc2nc(C(C)(C)C)no2)c(=O)n1Cc1ccc(-c2ccccc2-c2noc(=O)[nH]2)cc1
3. CCCCc1nc(C(C)C)c(Cc2nc(C3CC3)no2)c(=O)n1Cc1ccc(-c2ccccc2-c2noc(=O)[nH]2)cc1
4. CCCCc1nc(C)c(Cc2nc(C(C)C)no2)c(=O)n1Cc1ccc(-c2ccccc2-c2noc(=O)[nH]2)cc1

1. 3.14
2. 2.77
3. 3.41
4. 3.12

Every entry's value here was drawn from ChEMBL document CHEMBL4433251.
